# TARGET_OR_TEST_SYSTEM: furin, P09958;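 further: purified furin at 1:10 enzyme:substrate in 50 mM HEPES pH 7.5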
# Sequence (P09958 whole entry): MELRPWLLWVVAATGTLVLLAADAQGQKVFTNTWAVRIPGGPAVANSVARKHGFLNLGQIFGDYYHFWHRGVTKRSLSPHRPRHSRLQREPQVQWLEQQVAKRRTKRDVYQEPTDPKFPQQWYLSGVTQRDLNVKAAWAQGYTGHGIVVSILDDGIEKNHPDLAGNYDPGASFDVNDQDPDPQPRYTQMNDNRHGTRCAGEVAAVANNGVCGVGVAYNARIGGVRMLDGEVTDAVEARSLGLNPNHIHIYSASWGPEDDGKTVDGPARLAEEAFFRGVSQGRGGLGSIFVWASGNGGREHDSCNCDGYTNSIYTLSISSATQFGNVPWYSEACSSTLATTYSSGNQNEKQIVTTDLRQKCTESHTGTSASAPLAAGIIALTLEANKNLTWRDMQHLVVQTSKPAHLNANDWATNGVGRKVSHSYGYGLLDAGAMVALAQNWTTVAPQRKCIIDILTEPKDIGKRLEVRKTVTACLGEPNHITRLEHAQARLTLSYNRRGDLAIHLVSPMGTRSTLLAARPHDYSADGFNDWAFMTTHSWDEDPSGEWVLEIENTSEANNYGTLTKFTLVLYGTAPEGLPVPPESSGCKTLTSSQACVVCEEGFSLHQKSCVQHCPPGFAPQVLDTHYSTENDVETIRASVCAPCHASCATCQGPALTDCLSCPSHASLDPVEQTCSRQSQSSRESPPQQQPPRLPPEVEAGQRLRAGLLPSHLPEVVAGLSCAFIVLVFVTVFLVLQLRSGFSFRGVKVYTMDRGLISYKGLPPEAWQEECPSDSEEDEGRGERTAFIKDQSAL
# ASSAY_NOTES: furin cleavage Z-score vs untreated control; higher = more cleavage, active = 3.5 or more, inactive = 1 or less, 8 variable residues between constant flanks
# CONDITION: 15 min
The other results are listed elsewhere or left out. How many sequences the whole screen found active is unknown.
PROPERTY: furin cleavage Z-score

CACDECHSTDAGNASASA [HC818] :: -0.316
CAHNNRVGRQAGNASASA [FS-596] :: 3.29
CARRGRFLNQAGNASASA [FS-3047] :: -0.298
CAEPVVCCSMAGNASASA [HC2139] :: -1.42
